Known polymerase ribozyme fitness (log ratio) of a selection of variants
B1: TPR t1 (parent)
chain: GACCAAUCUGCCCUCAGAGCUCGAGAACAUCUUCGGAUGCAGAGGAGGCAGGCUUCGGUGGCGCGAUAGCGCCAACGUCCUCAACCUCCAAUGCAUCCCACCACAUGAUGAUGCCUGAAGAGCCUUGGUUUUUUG

- Variants of: B1
- protocol_details: polymerase ribozyme fitness, log enrichment relative to wild type (log ratio); higher = more active; in vitro selection for triplet polymerase activity
Write the value as a bare number.

G69U G113U: -0.867

Now examine the next entry.
Identify the reported polymerase ribozyme fitness (log ratio) for the following entry. C53U U55G
-0.16
